System: OVCAR-4
Assay: NCI tumour cell line growth inhibition, 48 h
Activity calls are given as the source filed them. No stated cut-off is given here; in the data, active = GI50 up to about 1.1 µM and inactive = higher.
Outcomes: true for active, false for inactive

> print(dat)
                                    compound  target.of.assay  category.label
 1  Cc1cc(NS(=O)(=O)c2ccc(NC(=O)c3ccc4nc5ccccc5c(Nc5ccc(S(=O)(=O)N=C(N)N)cc5)c4c3)cc2)no1          OVCAR-4           false
 2  O=C1CC(Nc2ccccc2)c2c(Cl)sc(Cl)c21 (stereo not drawn)          OVCAR-4           false
 3  COc1ccc(C2Oc3cc(OC)c(O)c(C)c3[C@H]2C)cc1 (stereo partly drawn)          OVCAR-4           false
 4  O=C1OC(CC(=O)c2ccc(Cl)cc2Cl)C(Cl)=C1Cl (stereo not drawn)          OVCAR-4           false
 5       O=C1C/C(=C\c2ccccc2)C(=O)c2ccccc2N1          OVCAR-4           false
 6  CCOC(=O)C1Cc2[nH]c3ccccc3c2C(C)C1C (stereo not drawn)          OVCAR-4           false
 7  CCCCN(CC)CC(C(C)=O)c1c(O)c2ccccc2oc1=O (stereo not drawn)          OVCAR-4           false
 8  O=C(CSc1nc2ccc(I)cc2c(=O)n1Cc1ccccc1)NNC(=O)c1ccccc1          OVCAR-4           false
 9  COC(=O)C(=O)C(C(=O)OC)C(=O)C(=O)Nc1cc(Cl)c(C)cc1S(=O)(=O)O (stereo not drawn)          OVCAR-4           false
10  C/C(=C\c1ccccc1)C(=O)NCc1ccc(C(=O)NCCc2ccccc2)cc1          OVCAR-4           false
11                   CN(C)S(=O)(=O)Nc1ccccn1          OVCAR-4           false
12  Nc1ccccc1C(=O)NC(=O)Nc1ccc(Oc2ncc(Br)cn2)c(Cl)c1          OVCAR-4            true
13  Cc1ccc2c(c1)-c1nc(N)c(C#N)c(-c3ccccc3)c1CCS2(=O)=O          OVCAR-4           false
14   Cc1ccc(NC(=O)C(=O)Cc2nc3ccccc3o2)c(C)c1          OVCAR-4           false
15  CC(=O)NNc1nc(C)c(C(=O)NNC(=O)C(=O)Nc2nc3ccc([N+](=O)[O-])cc3s2)s1          OVCAR-4           false
16  [O-][S+]1c2ccccc2NC(c2ccc3ccccc3c2)CC1c1ccccc1 (stereo not drawn)          OVCAR-4           false
17              O=C(Nc1ccc2ccccc2c1)Nn1cnnc1          OVCAR-4           false
18  COC(=O)CC(c1ccccc1)C(C#N)(OP1(=O)OC(c2ccccc2)C(C)N1C)c1ccccc1 (stereo not drawn)          OVCAR-4           false
19  C/C(=N/NC(=S)Nc1ccccc1Cl)c1cccc(/C(C)=N\NC(=S)Nc2ccccc2Cl)n1          OVCAR-4           false
20  Clc1ccc(-c2cn3c(nc4ccccc43)c(/C=C/c3cccs3)n2)cc1          OVCAR-4           false
21  COc1cc2oc(-c3ccc4c(c3)OCO4)c(OC)c(=O)c2c(OC)c1OC          OVCAR-4           false
22           CCc1cccc(C)c1NS(=O)(=O)c1ccccc1          OVCAR-4           false
23  Cc1cn(C2CC(N)C(C(=O)O)O2)c(=O)[nH]c1=O (stereo not drawn)          OVCAR-4           false
24  O=C1Nc2ccccc2C1Cc1ccccc1 (stereo not drawn)          OVCAR-4           false
25           C/C(=N\Nc1nc2ccccc2n1C)c1ccncn1          OVCAR-4            true
26  N=C(N)c1ccc(/N=N/c2c(O)ccc3cc(O)ccc23)cc1          OVCAR-4           false
27    O=S(=O)(SCc1ccccc1)C(c1ccccc1)c1ccccc1          OVCAR-4           false
28  CCOC(=O)c1c(SCCCN2CCCCC2)n(-c2ccccc2)c(=S)n(-c2ccccc2)c1=O          OVCAR-4           false
29  COC(C)(C)CCc1[nH]c2ccccc2c1CC(=O)NCCc1cncn1C          OVCAR-4           false
30  C/C(C=O)=C/[C@@]1(C)O[C@@H](C)[C@@](C)(O)[C@@H]1O          OVCAR-4           false
31  CCOC(=O)Oc1cc2c(c(OC)c1OC)-c1ccc(OC)c(=O)cc1C(NC(C)=O)CC2 (stereo not drawn)          OVCAR-4           false
32  C[C@]12C[C@H](O)[C@H]3[C@@H](CCC4=CC(=O)CC[C@@]43C)[C@@H]1CC[C@@H]2c1csc(-c2ccccc2)n1          OVCAR-4           false
33               COc1ccc(OC)c2c1C=CC(Br)=CC2          OVCAR-4            true

* * *

Test system: UACC-62
Assay: NCI tumour cell line growth inhibition, 48 h
Active and inactive are the calls of the source. No stated cut-off is given here; in the data, active = GI50 up to about 1.1 µM and inactive = higher.
Parameter measured: GI50

> print(dat)
                                   molecule      measured.result
1          Cc1cccc(NC(=O)O/N=C(\Cl)C(C)C)c1   15.9 µM (inactive)
2  CN1C/C(=C\C=C\c2ccccc2)C(=O)/C(=C/C=C/c2ccccc2)C1  > 100 µM (inactive)
3      Cc1cc(-c2ccccc2)nc(Nc2nc3ccccc3o2)n1  > 100 µM (inactive)
4                    CC1(C)SCc2nc3ccccc3n21  > 100 µM (inactive)
5  O=C(O)/C=C(/C(=O)O)C12CCN3CC4=CCOC5CC(=O)NC1C5C4CC32 (stereo unspecified)  > 100 µM (inactive)
6  CC(=O)OCC12CC(CC1OC(C)=O)c1ccccc12 (stereo unspecified)  > 100 µM (inactive)

* * *

Test system: SF-539
Assay: NCI tumour cell line growth inhibition, 48 h
Activity calls are given as the source filed them. No stated cut-off is given here; in the data, active = GI50 up to about 1.1 µM and inactive = higher.
Outcome codes: yes (1) (active), no (0) (inactive)

> print(dat)
                                    molecule  category.label
 1  CCOC(=O)CSc1nc(N)c2c(-c3ccccc3)c3c(nc2n1)CCCC3          no (0)
 2  O=C(O)CC(O)(c1ccccc1C(=O)O)c1cccc2ccccc12 (stereo not given)          no (0)
 3  CC(NC(=O)C(C)C(=O)Nc1ccc(C(F)(F)F)cc1)C(N)=O (stereo not given)          no (0)
 4  CC(=O)NC(CCCNCc1ccccc1)C(=O)NCc1ccccc1 (stereo not given)          no (0)
 5  C(=C\c1cc(CCc2nc3ccccc3[nH]2)n[nH]1)/c1ccccc1          no (0)
 6               COc1ccc(OC)c2c1C=CC(Br)=CC2         yes (1)
 7  CCN(CC)C(=S)N/N=C/c1cc([N+](=O)[O-])ccc1O          no (0)
 8  C/C(=N/N)c1sc(-c2nc(C)c(/C(C)=N\N)s2)nc1C          no (0)
 9  CC1CN=C(Nc2cccc(C(F)(F)F)c2)S1 (stereo not given)          no (0)
10  COC1(OC)c2no[n+]([O-])c2C(OC)(OC)c2c1no[n+]2[O-]          no (0)
11  Nc1nc(=O)n(CC(O)CO)s1 (stereo not given)          no (0)
12           Cc1c(O)nc(/C=C/C(=O)O)nc1C(=O)O          no (0)
13                   CCCCCCc1ccc(C(=O)NO)cc1          no (0)
14  O=[N+]([O-])c1ccc(N/N=C(\c2ccccc2)c2ccccn2)nc1          no (0)
15  CC1C(c2ccccc2)=CCON1c1ccccc1 (stereo not given)          no (0)
16  COc1ccc(C2Oc3cc(OC)c(O)c(C)c3[C@H]2C)cc1 (stereo not given in full)          no (0)
17  CC(C)(C)OC(=O)NC(CSCc1ccc(C(=O)c2ccccc2)cc1)C(=O)N1CCN(CCCCN2c3ccccc3Sc3cc(N=[N+]=[N-])ccc32)CC1 (stereo not given)          no (0)
18  CCOC(=O)C1Sc2ccccc2N=C1C (stereo not given)          no (0)
19                          O=C1NCCCc2nonc21          no (0)
20  O=C1NC2c3c(I)sc(I)c3C(O)C2O1 (stereo not given)          no (0)
